- Test system: SK-OV-3
- Assay name: NCI tumour cell line growth inhibition, 48 h
Active and inactive are the calls of the source. No stated cut-off is given here; in the data, active = GI50 up to about 1.1 µM and inactive = higher.
Property label: GI50

// solved cases for GI50 follow
Compound	Property label	Data value
COc1ccc(N2C(=O)[C@@H]3[C@H](C2=O)c2[nH]c4ccccc4c2C2CCC(C(C)(C)C)C[C@@H]23)cc1 (stereo not given in full)	GI50	18.6 µM (inactive)
Cc1ccnn1CCc1ccc(Cl)cc1Cl	GI50	65.9 µM (inactive)
O=C(N/C(=C\c1ccc(Br)cc1)c1nc2ccccc2[nH]1)c1ccccc1	GI50	34.6 µM (inactive)
COc1ccc(C2=C(N)c3c(Cl)cccc3C2=O)cc1	GI50	55.3 µM (inactive)

# input for lookup
// sample O=C1C(Cl)C(c2ccccc2Cl)N1n1cnc2ccccc2c1=O (stereo not given) , its GI50 was 24.2 µM (inactive)

###

- System: M14
- Assay name: NCI tumour cell line growth inhibition, 48 h
Calls of active or inactive are those of the source. Cut-off read from the data, not from the text of the source: active = GI50 up to about 1.1 µM and inactive = higher.
I would appreciate it if you answered using one of these outcomes: yes for active, no for inactive

Worked set:
Compound	Target or test system	Assigned class
Cc1ccc(S(=O)(=O)CNC(=S)CCCC(=S)NCS(=O)(=O)c2ccc(C)cc2)cc1	M14	no
N#CC(C#N)=Cc1ccc(Oc2ccccc2)cc1	M14	no
CC(=O)C(C(C)=O)[C@H]1OC(C)(C)O[C@H]1[C@H]1COC(C)(C)O1	M14	no
CS(=O)(=O)OCCCNCCCOS(C)(=O)=O	M14	no
COc1ccc(C2=C(OC(C)=O)c3cccn3-c3ccccc3S2)cc1	M14	no

In: Recorded test call requested for O=C(CCc1ccccc1)CC1OC(=O)C(Cl)=C1Cl (centres undefined)
Out: no

In: Query: recorded result category for O=c1cc(N2CCCC2)[nH]c(=O)n1-c1ccccc1 in this test
Out: no

In: Dear colleague, could you share the recorded outcome for CCN1c2ccccc2-c2c3c1cc(C)cc3c1ccccc1[n+]2CC when you have a moment?
Out: no

In: Dear colleague, could you share the recorded outcome for CO[C@H]1C[C@H](O[C@H]2CC[C@@]3(C)[C@H](CC[C@@H]4[C@@H]3CC[C@]3(C)[C@@H](C5=CC(=O)OC5)CC[C@]43O)C2)O[C@H](C)[C@H]1O when you have a moment?
Out: yes

###

- Test system: HCT-15
Property label: GI50

Compound	Target or test system	GI50
Nc1nc(CCc2n[nH]c(N)n2)n[nH]1	HCT-15	> 100 µM
CN(C)c1ccc(/C=C2\Oc3ccccc3C2=O)cc1	HCT-15	> 100 µM
N#Cc1nnn(-c2ccc(Br)cc2)c1O	HCT-15	> 100 µM
O=S(=O)(c1ccccc1)N1CCC1c1ccccc1 (stereo not given)	HCT-15	> 100 µM

Input COC(=O)C1Cc2c([nH]c3ccccc23)C=N1 (stereo not given) . Output GI50: > 100 µM

###

- Tested on: A498
- Assay name: NCI tumour cell line growth inhibition, 48 h
Active and inactive are the calls of the source. Rule as the data show it: active = GI50 up to about 1.1 µM and inactive = higher.
Outcome field: choose from label 1 (active), label 0 (inactive)

Compound	Assigned class
C/C=C/C=C\C=C/C(O)C(C)C(CCC(C)C1OC(=O)C=CC1C)OP(=O)(O)O (stereo unspecified)	label 1
Cc1ccccc1C1=[N+]([O-])c2ccc(Cl)cc2C1=O	label 0
COC(=O)CCC1(CCC(=O)OC)CCCCCCC(CCC(=O)OC)(CCC(=O)OC)C(=O)C1=O	label 0

// switching to the query compound
In: Which result was noted for this compound in the test: C/C=C(\C)C(=O)OC1C2C(C)=CC(=O)C(O)C2(C)C2C3(O)OCC24C1OC(=O)C(OC(C)=O)C4C(C)C3O (stereo unspecified)
Out: label 1
